Test system: YAPC (Pancreatic Carcinoma);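 note: after 72 h of two-drug dosing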
Test: Bliss excess, mean over the matrix (fraction); higher = more synergy
The entries below are paired with their reported Bliss excess.
MEASURED ATTRIBUTE: Bliss excess

>>> result("Cc1c2c(nn1C)CSCc1cc(n(C)n1)CSc1cc(c3ccccc3c1)OCCCc1c(C(=O)O)n(C)c3c-2c(Cl)ccc13 [AZD5991] + C1CN(CCC1(C(=O)N[C@@H](CCO)C2=CC=C(C=C2)Cl)N)C3=NC=NC4=C3C=CN4 [Capivasertib] (first compound max 1 µM, 7x7, partner max 3 µM)")
-0.0095
>>> result("CC(=O)c1c(C)c2cnc(Nc3ccc(N4CCNCC4)cn3)nc2n(C2CCCC2)c1=O [Palbociclib] + Cn1cnc2c(F)c(Nc3ccc(Br)cc3Cl)c(C(=O)NOCCO)cc21 [Selumetinib] (first compound max 10 µM, 7x7, partner max 10 µM)")
0.0156

* * *

Test system: HuH-7 (Hepatocellular Carcinoma)
Test: combination Emax (second highest fraction inhibited in the dose matrix, 72 h); higher = more inhibition; extreme values may be limits of the assay
MEASURED ATTRIBUTE: combination Emax

>>> result("CCc1c2c(nc3ccc(O)cc13)-c1cc3c(c(=O)n1C2)COC(=O)[C@]3(O)CC [SN-38] + CN(C)CCCOc1ccc(-c2ccc3ncc4c(c3c2)n(C2CCOCC2)c(=O)n4C)cn1 [AZD0156] (first compound max 0.3 µM, 7x7, partner max 1 µM)")
0.149
>>> result("CN(C)CCCOc1ccc(-c2ccc3ncc4c(c3c2)n(C2CCOCC2)c(=O)n4C)cn1 [AZD0156] + O=C(c1cc(Cc2n[nH]c(=O)c3ccccc23)ccc1F)N1CCN(C(=O)C2CC2)CC1 [Olaparib] (first compound max 3 µM, partner max 3 µM)")
0.16
>>> result("CC1(C)CCC(CN2CCN(c3ccc(C(=O)NS(=O)(=O)c4ccc(NCC5CCOCC5)c([N+](=O)[O-])c4)c(Oc4cnc5[nH]ccc5c4)c3)CC2)=C(c2ccc(Cl)cc2)C1 [Venetoclax] + COc1cc(Nc2ncc3c(n2)-c2ccc(Cl)cc2C(c2c(F)cccc2OC)=NC3)ccc1C(=O)O [Alisertib] (first compound max 1 µM, 7x7, partner max 10 µM)")
0.791
>>> result("Cc1c2c(nn1C)CSCc1cc(n(C)n1)CSc1cc(c3ccccc3c1)OCCCc1c(C(=O)O)n(C)c3c-2c(Cl)ccc13 [AZD5991] + C[C@@H](Nc1cc(F)cc(F)c1)c1cc(C(=O)N(C)C)cc2c(=O)cc(N3CCOCC3)oc12 [AZD8186] (first compound max 1 µM, 7x7, partner max 3 µM)")
0.208
>>> result("Cc1c2c(nn1C)CSCc1cc(n(C)n1)CSc1cc(c3ccccc3c1)OCCCc1c(C(=O)O)n(C)c3c-2c(Cl)ccc13 [AZD5991] + C[C@@H]1COCCN1C2=NC(=NC(=C2)C3(CC3)[S@](=N)(=O)C)C4=C5C=CNC5=NC=C4 [AZD6738] (first compound max 1 µM, 7x7, partner max 10 µM)")
0.279

* * *

System: NCI-H1568 (Lung Adenocarcinoma)
Assay: combination Emax (second highest fraction inhibited in the dose matrix, 72 h); higher = more inhibition; extreme values may be limits of the assay
The entries below are paired with their reported combination Emax.
MEASURED ATTRIBUTE: combination Emax

>>> result("CCc1c2c(nc3ccc(O)cc13)-c1cc3c(c(=O)n1C2)COC(=O)[C@]3(O)CC [SN-38] + CN(C)CCCOc1ccc(-c2ccc3ncc4c(c3c2)n(C2CCOCC2)c(=O)n4C)cn1 [AZD0156] (first compound max 0.3 µM, 7x7, partner max 1 µM)")
0.474
>>> result("CN(CCO)CC[C@H](CSc1ccccc1)Nc1ccc(S(=O)(=O)NC(=O)c2ccc(N3CCC([C@@H](O)c4ccccc4-c4ccc(Cl)cc4)CC3)cc2)cc1S(=O)(=O)C(F)(F)F [AZD4320] + C[C@@H](Nc1cc(F)cc(F)c1)c1cc(C(=O)N(C)C)cc2c(=O)cc(N3CCOCC3)oc12 [AZD8186] (first compound max 1 µM, 7x7, partner max 3 µM)")
0.344
>>> result("C=CCn1c(=O)c2cnc(Nc3ccc(N4CCN(C)CC4)cc3)nc2n1-c1cccc(C(C)(C)O)n1 [AZD1775] + C1CN(CCC1(C(=O)N[C@@H](CCO)C2=CC=C(C=C2)Cl)N)C3=NC=NC4=C3C=CN4 [Capivasertib] (first compound max 3 µM, partner max 3 µM)")
0.765
